- target: recombinant human VEGF165 (human, UniProt P15692 27-191)
- Sequence (P15692 other isoform, or with tags, fused parts or gaps): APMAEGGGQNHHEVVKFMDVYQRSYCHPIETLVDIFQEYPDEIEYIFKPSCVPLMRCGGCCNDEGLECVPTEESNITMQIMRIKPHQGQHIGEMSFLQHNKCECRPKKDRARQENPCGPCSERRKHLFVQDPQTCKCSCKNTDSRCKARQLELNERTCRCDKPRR
- assay_text: cell-based or functional assay
Rel. activity in HUVEC assay (EC50Luc[nM]/EC50test[nM]) under 0.009 gets Fulfilled, anything at or over 0.009 gets Not fulfilled.

The examples below pair each entry with its known result.
511-max (scFv, also called ESBA802) scFv: EIVMTQSPSTLSASVGDRVIITCQASQSINIWLSWYQQKPGKAPKLLIYRASTLASGVPSRFSGSGSGTEFTLTISSLQPDDFATYYCQANYAYSAGYGAAFGQGTKLTVLGGGGGSGGGGSGGGGSGGGGSEVQLVESGGGLVQPGGSLRLSCTVSGFSLNTYYMNWVRQAPGKGLEWVGIIAPDDTTYYASWAKSRSTISRDTSKNTVYLQMNSLRAEDTAVYYCARSGDTTAWGADIWGQGTLVTVSS	Not fulfilled
534-max (scFv, VL and VH tied by name; also called EP534max; Protein Nr; 793) scFv: EIVMTQSPSTLSASVGDRVIITCQASQSINIWLSWYQQKPGKAPKLLIYKESTLASGVPSRFSGSGSGTEFTLTISSLQPDDFATYYCQNNYDSGNNGFPFGQGTKLTVLGGGGGSGGGGSGGGGSGGGGSEVQLVESGGGLVQPGGSLRLSCTASGFSLSYYYMSWVRQAPGKGLEWVGIIGPGDYTDYASWAKGRFTISKDTSKNTVYLQMNSLRAEDTAVYYCARGDDNSGWGEDIWGQGTLVTVSS	Fulfilled
509-max (scFv, VL and VH tied by name; also called Protein Nr; 855) scFv: EIVMTQSPSTLSASVGDRVIITCQASQNIRIWLSWYQQKPGKAPKLLIYKASTLESGVPSRFSGSGSGTEFTLTISSLQPDDFATYYCQNNAHYSTNGGTFGQGTKLTVLGGGGGSGGGGSGGGGSGGGGSEVQLVESGGGLVQPGGSLRLSCTASGFSLSSYYMCWVRQAPGKGLEWVGCLDYVGDTDYASWAKGRFTISKDASKNTVYLQMNSLRAEDTAVYYCARTDDSRGWGLNIWGQGTLVTVSS	Fulfilled
511-min (scFv, VL and VH tied by name; also called Protein Nr) scFv: EIVMTQSPSTLSASVGDRVIITCQASQSINIWCSWYQQKPGKAPKLLIYRASTLASGVPSRFSGSGSGAEFTLTISSLQPDDFATYYCQANYAYSAGYGAAFGQGTKLTVLGGGGGSGGGGSGGGGSGGGGSEVQLVESGGGLVQPGGSLRLSCAASGFSLNTYYMNWVRQAPGKGLEWVSIIAPDDTTYYASWAKSRFTISRDNSKNTLYLQMNSLRAEDTAVYYCAKSGDTTAWGADIWGQGTLVTVSS	Fulfilled
509-maxII (scFv, VH tied by name; also called Protein Nr) scFv: EIVMTQSPSTLSASVGDRVIITCQASQNIRIWLSWYQQKPGKAPKLLIYKASTLESGVPSRFSGSGSGTEFTLTISSLQPDDFATYYCQNNAHYSTNGGTFGQGTKLTVLGGGGGSGGGGSGGGGSGGGGSEVQLVESGGGLVQPGGSLRLSCTASGFSLSSYYMSWVRQAPGKGLEWVGILDYVGDTDYASWAKGRFTISKDASKNTVYLQMNSLRAEDTAVYYCARTDDSRGWGLNIWGQGTLVTVSS	Fulfilled
578-min (scFv, also called EP578 min; Protein Nr; 820) scFv: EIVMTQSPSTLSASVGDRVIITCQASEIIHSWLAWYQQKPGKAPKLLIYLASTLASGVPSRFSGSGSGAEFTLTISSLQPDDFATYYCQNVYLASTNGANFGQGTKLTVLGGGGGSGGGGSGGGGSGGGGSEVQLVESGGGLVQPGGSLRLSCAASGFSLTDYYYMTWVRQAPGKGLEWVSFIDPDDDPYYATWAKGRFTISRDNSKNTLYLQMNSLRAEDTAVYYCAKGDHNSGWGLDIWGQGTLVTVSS	Not fulfilled

Q. Regarding 567-max (scFv, VL and VH tied by name; also called Protein Nr; 874) scFv: EIVMTQSPSTLSASVGDRVIITCQADQSIYIWLSWYQQKPGKAPKLLIYKASTLESGVPSRFSGSGSGTQFTLTISSLQPDDFATYYCQNNAHYSTNGGTFGQGTKLTVLGGGGGSGGGGSGGGGSGGGGSEVQLVESGGGLVQPGGSLRLSCSVSGFSLSDYYMCWVRQAPGKGLEWVGCLDYFGSTDDASWAKGRFTISKDTSKNTVYLQMNSLRAEDTAVYYCARTDDSRGWGLNIWGQGTLVTVSS , kindly confirm whether its Rel. activity in HUVEC assay (EC50Luc[nM]/EC50test[nM]) is beneath 0.009.
A. Fulfilled

Q. Now give it for 578-max (scFv, also called EP578max; #821) scFv: EIVMTQSPSTLSASVGDRVIITCQASEIIHSWLAWYQQKPGKAPKLLIYLASTLASGVPSRFSGSGSGTQFTLTISSLQPDDFATYYCQNVYLASTNGANFGQGTKLTVLGGGGGSGGGGSGGGGSGGGGSEVQLVESGGGLVQPGGSLRLSCTASGFSLTDYYYMTWVRQAPGKGLEWVGFIDPDDDPYYATWAKGRFTISRDTSKNTVYLQMNSLRAEDTAVYYCAGGDHNSGWGLDIWGQGTLVTVSS too.
A. Not fulfilled

Hello, the source for this data is patent US20150274820A1, in case you need it.
